Molecular target: CETP (Homo sapiens, UniProt P11597)
Construct: CETP is obtained in partially purified form from human plasma; from tissue; host or cells: human plasma
Sequence (P11597 18-493): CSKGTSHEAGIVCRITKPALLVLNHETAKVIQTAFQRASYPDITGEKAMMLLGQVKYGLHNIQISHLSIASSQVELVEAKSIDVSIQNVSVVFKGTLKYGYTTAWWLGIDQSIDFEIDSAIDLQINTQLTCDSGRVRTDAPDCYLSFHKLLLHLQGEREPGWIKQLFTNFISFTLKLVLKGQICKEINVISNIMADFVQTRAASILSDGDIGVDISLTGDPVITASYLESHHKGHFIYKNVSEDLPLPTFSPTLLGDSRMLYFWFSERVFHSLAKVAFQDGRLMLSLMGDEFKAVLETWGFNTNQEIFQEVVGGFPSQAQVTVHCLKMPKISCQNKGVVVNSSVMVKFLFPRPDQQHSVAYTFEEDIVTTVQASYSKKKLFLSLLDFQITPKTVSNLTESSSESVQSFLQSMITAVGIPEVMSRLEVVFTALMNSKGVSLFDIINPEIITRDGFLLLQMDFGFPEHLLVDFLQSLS
Assay: CETP-SPA test
Format: biochemical
Settings: 3H-cholesterol ester transfer from HDL to biotin-LDL, 37° C., 18 h
measure: IC50 (nM)

| smiles.code | reading.unit | IC50 |
| --- | --- | --- |
| CC(C)c1nc2c(c(-c3ccccc3)c1[C@@H](O)c1ccc(C(F)(F)F)cc1)[C@@H](O)CC1(CCC1)C2 | nM | 30 |

A = O[C@@H](c1ccc(C(F)(F)F)cc1)c1c(C2CCCC2)nc2c(c1-c1ccc(F)cc1)[C@@H](O)CC1(CCC1)C2
B = CC(C)c1nc2c(c(-c3ccsc3)c1[C@@H](O)c1ccc(C(F)(F)F)cc1)[C@@H](O)CC1(CCC1)C2
Prompt: For the pair A and B , which entry has the numerically smaller recorded IC50? Mark your selection by writing its label.
Response: A
(A: 5 nM, B: 40 nM)
